# experimental target: human GPR40 (Homo sapiens)
# Construct: expressed in transfected cells; host or cells: HEK cells stably expressing the aequorin reporter
# Sequence (O14842 whole entry): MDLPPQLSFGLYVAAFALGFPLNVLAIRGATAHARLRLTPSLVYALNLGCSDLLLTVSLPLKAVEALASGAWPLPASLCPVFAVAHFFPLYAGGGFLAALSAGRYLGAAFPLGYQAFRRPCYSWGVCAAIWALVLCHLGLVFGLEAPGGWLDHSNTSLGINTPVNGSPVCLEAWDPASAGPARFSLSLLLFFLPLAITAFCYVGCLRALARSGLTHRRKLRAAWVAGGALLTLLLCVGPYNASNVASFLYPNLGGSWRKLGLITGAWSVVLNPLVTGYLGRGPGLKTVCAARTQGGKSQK
# test method notes: Inositol Phosphate Turnover (IP1) Assay 2
# Format: cell-based
# test conditions: HEK cells stably expressing human GPR40; 15,000 cells per well; compound acoustically transferred; CisBio IP-One kit
Hi! Could you tag entries with EC50 below 4 nM as True, and those at or above as False? Much appreciated.

Prompt: Consider the compound COc1cc(-c2ccc(C3CCc4ccc([C@H](C5CC5)[C@H](C)C(=O)O)cc4O3)cc2CN(C2CC2)C2COC2)c(F)cn1 (mixture of isomers) . Is its EC50 strictly less than 4 nM?
Completion: True

----------
# experimental target: human GPR40 (Homo sapiens)
# Construct: expressed in transfected cells; host or cells: HEK cells stably expressing the aequorin reporter
# test method notes: Inositol Phosphate Turnover (IP1) Assay 3
# Assay type: cell-based
# test conditions: HEK cells stably expressing human GPR40
observation type: log10 of EC50 (log10 of the value in nM)
A difference of one corresponds to tenfold EC50; all values are log10 with EC50 in nM.

Prompt: What measured log10 of EC50 goes with COc1cc(-c2ccc(C3CCc4ccc([C@H](C5CC5)[C@H](C)C(=O)O)c(F)c4O3)cc2CN2CCCCC23CC3)c(F)cn1 (single isomer, unassigned) [Example 203] ?
Completion: -0.80

Prompt: What measured log10 of EC50 goes with COc1cc(-c2ccc(C3CCc4ccc([C@H](C5CC5)[C@H](C)C(=O)O)cc4O3)c(CN3[C@H](C)CC[C@@H]3C)c2)ccn1 (single isomer, unassigned) [Example 122a] ?
Completion: 0.52

Prompt: What measured log10 of EC50 goes with CCN(CC)Cc1cc(C2CCc3ccc([C@H](C4CC4)[C@H](C)C(=O)O)cc3O2)ccc1-c1ccnc(OC)c1 (single isomer, unassigned) [Example 283] ?
Completion: 0.64

Prompt: What measured log10 of EC50 goes with COc1cc(-c2ccc(C3CCc4ccc([C@H](C5CC5)[C@H](C)C(=O)O)c(F)c4O3)cc2CN2CCCC2)c(F)cn1 (single isomer, unassigned) [Example 198] ?
Completion: 0.67

Prompt: What measured log10 of EC50 goes with COc1cc(-c2ccc(C3CCc4ccc([C@H](C5CC5)[C@H](C)C(=O)O)cc4O3)c(CN(C)C(C)(C)C)c2)c(F)cn1 (single isomer, unassigned) [Example 125a] ?
Completion: -0.52

Prompt: What measured log10 of EC50 goes with COc1cc(-c2ccc(C3CCc4ccc([C@H](C5CC5)[C@H](C)C(=O)O)cc4O3)c(CN3[C@H](C)CC[C@H]3C)c2)ccn1 (single isomer, unassigned) [Example 116d] ?
Completion: 2.59

Prompt: What measured log10 of EC50 goes with COc1cc(-c2ccc(C3CCc4ccc([C@H](C5CC5)[C@H](C)C(=O)O)cc4O3)cc2CN2CCC3CC32)c(F)cn1 (some centres unmarked) [Example 252] ?
Completion: -0.15

Prompt: What measured log10 of EC50 goes with COc1cc(-c2ccc(C3CCc4ccc([C@H](C5CC5)[C@H](C)C(=O)O)cc4O3)cc2CNC(C)(C)C)c(F)cn1 (some centres unmarked) ?
Completion: 1.62

Prompt: What measured log10 of EC50 goes with COc1cc(-c2ccc(C3CCc4ccc([C@H](C5CC5)[C@H](C)C(=O)O)cc4O3)cc2CN2CCCC23COC3)c(F)cn1 (some centres unmarked) ?
Completion: -0.70

Prompt: What measured log10 of EC50 goes with COc1cc(-c2ccc(C3CCc4ccc([C@H](C5CC5)[C@H](C)C(=O)O)c(F)c4O3)cc2CN2CCCCC2)c(F)cn1 (single isomer, unassigned) [Example 200] ?
Completion: 0.18

Could you now consider this next compound?
Prompt: What measured log10 of EC50 goes with COc1ccc(F)c(-c2ccc(C3CCc4ccc([C@H](C5CC5)[C@H](C)C(=O)O)cc4O3)cc2CN2CCCCC23CC3)n1 (single isomer, unassigned) [Example 189] ?
Completion: 0.71
